testProtocol: ATG_NRF2_ARE_CIS: Attagene CIS-FACTORIAL HepG2 Assay for human Nuclear Factor Erythroid 2 Related Factor 2 (NFR2) response to Antioxidant Response Elements (ARE) (AID 2282992)
assaySetup: HepG2 Attagene ARE/NRF2 reporter, transcription factor activity; actives raise or lower the signal
Activity calls are given as the source filed them. The calls were made as follows: active = hit-call score of the fitted dose curve at least 0.9, where 1 is the maximum; inactive = score below 0.9.
Outcome codes: active, inactive

smilesCode: CCNCC
labelClass: inactive
--
smilesCode: O=[N+]([O-])c1cc(C(F)(F)F)c(Cl)c([N+](=O)[O-])c1Cl
labelClass: active
--
smilesCode: CC1CCCC1.[C-]#[O+].[C-]#[O+].[C-]#[O+].[Mn]
labelClass: inactive
--
smilesCode: CCCCOP(=O)(O)OCCCC
labelClass: inactive
--
smilesCode: CN(C)C(=O)C(c1ccccc1)c1ccccc1
labelClass: inactive
--
smilesCode: C=CCN(CC=C)C(=O)C(Cl)Cl
labelClass: active

###

studyTarget: Cellular tumor antigen p53 (Homo sapiens)
testProtocol: TOX21_p53_BLA_p5_ratio: Tox21 HCT-116 p53 Agonism Beta-lactamase Assay, Ratio, Phase 5 (AID 2283599)
Results filed as inconclusive are left out. Activity calls are given as the source filed them. The calls were made as follows: active = hit-call score of the fitted dose curve at least 0.9, where 1 is the maximum; inconclusive = response in the unintended direction; inactive = score below 0.9.
Outcome codes: label 1 for active, label 0 for inactive

compound: CCCC[N+]1(C)[C@@H]2CC(OC(=O)[C@H](CO)c3ccccc3)C[C@H]1[C@@H]1O[C@@H]12 (stereo partly drawn)
labelClass: label 0
--
compound: NC(=O)CN1CCCC1=O
labelClass: label 0
--
compound: Cc1ncc(CNC(=O)N(CCCl)N=O)c(N)n1
labelClass: label 0
--
compound: COc1ccc(C=O)cc1O
labelClass: label 0
--
compound: COc1ccc2c(c1OC)C(=O)O[C@H]2[C@@H]1c2cc3c(cc2CCN1C)OCO3
labelClass: label 0
--
compound: C#C[C@]1(O)C=C[C@H]2[C@@H]3CCC4=CC(=O)CC[C@@H]4[C@H]3CC[C@@]21CC
labelClass: label 0
--
compound: O=[N+]([O-])c1cc(Cl)c(Cl)c(Cl)c1
labelClass: label 0
--
compound: O=C(NC(=O)c1c(F)cccc1F)Nc1ccc(Oc2ccc(C(F)(F)F)cc2Cl)cc1F
labelClass: label 0
--
compound: O=C1CC(=O)NC(=O)N1
labelClass: label 0
--
compound: CCN(C)N=O
labelClass: label 0
--
compound: Cc1ccc2c(c1)C1CN(C)CCC1N2 (stereo not drawn)
labelClass: label 0
--
compound: O=[N+]([O-])c1ccc(Oc2ccc(C(F)(F)F)cc2[N+](=O)[O-])cc1
labelClass: label 0
--
compound: CN1C(=O)CC(=O)N(c2ccccc2)c2cc(Cl)ccc21
labelClass: label 0
--
compound: C[C@]12C=CC(=O)C=C1CC[C@@H]1[C@@H]2CC[C@@]2(C)[C@H]1CC[C@]2(C)O
labelClass: label 0
--
compound: CCCCCCCCCCCCCC[P+](CCCCCC)(CCCCCC)CCCCCC (tested in a mixture with another compound)
labelClass: label 1
--
compound: O=[N+]([O-])c1ccc([As](=O)(O)O)cc1
labelClass: label 0
--
compound: CCCC(=O)OC(C(Cl)(Cl)Cl)P(=O)(OC)OC (stereo not drawn)
labelClass: label 0
--
compound: S=C=S
labelClass: label 0

###

studyTarget: Paired box protein Pax-6 (Homo sapiens) (UniProt P26367)
Sequence (P26367 whole entry, looked up): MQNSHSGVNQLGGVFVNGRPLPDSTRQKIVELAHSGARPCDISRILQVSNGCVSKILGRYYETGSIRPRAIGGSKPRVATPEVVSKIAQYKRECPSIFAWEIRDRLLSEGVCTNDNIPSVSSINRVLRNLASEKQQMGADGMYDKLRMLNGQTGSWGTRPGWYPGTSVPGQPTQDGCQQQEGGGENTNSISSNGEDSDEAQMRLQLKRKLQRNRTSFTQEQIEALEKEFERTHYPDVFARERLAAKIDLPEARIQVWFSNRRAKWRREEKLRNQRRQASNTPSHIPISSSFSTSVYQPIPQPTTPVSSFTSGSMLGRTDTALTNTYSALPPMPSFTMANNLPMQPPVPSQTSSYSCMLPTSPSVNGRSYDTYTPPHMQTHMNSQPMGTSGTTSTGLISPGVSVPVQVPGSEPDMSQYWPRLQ
testProtocol: ATG_Pax6_CIS: Attagene CIS-FACTORIAL HepG2 Assay for human Paired Box 6 (PAX6) (AID 2282956)
assaySetup: HepG2 CIS-FACTORIAL PAX6 reporter transcription, RNA readout; actives raise or lower the signal
The source made the active and inactive calls. The calls were made as follows: active = hit-call score of the fitted dose curve at least 0.9, where 1 is the maximum; inactive = score below 0.9.
Outcome codes: active, inactive

compound: CC(=O)c1cc2c(cc1C)C(C)(C)C(C)CC2(C)C (configuration not stated)
labelClass: active
--
compound: ClCCCCCCCl
labelClass: inactive
--
compound: c1cc(OCC2CO2)ccc1Cc1ccc(OCC2CO2)cc1 (configuration not stated)
labelClass: active
--
compound: CCN(CC)C(=S)S
labelClass: inactive
--
compound: CCNCC
labelClass: inactive
--
compound: COc1ncc(F)c2nc(S(=O)(=O)Nc3c(F)cccc3F)nn12
labelClass: inactive
--
compound: COc1cc(OC)c(OC)cc1C=O
labelClass: inactive
--
compound: c1ccc(Nc2ccc3ccccc3c2)cc1
labelClass: inactive
--
compound: NNc1ccccc1
labelClass: inactive
--
compound: C=CC(=O)OCC(CC)CCCC (configuration not stated)
labelClass: inactive
--
compound: CN1C[C@H](C(=O)N[C@]2(C)O[C@@]3(O)[C@@H]4CCCN4C(=O)[C@H](Cc4ccccc4)N3C2=O)C=C2c3cccc4[nH]cc(c34)C[C@H]21
labelClass: inactive
--
compound: O=[N+]([O-])C=Cc1ccccc1
labelClass: active
--
compound: CCCCCc1cc(O)cc(O)c1
labelClass: active
--
compound: c1ccc(P(c2ccccc2)c2ccccc2)cc1
labelClass: inactive
--
compound: CCC[N+](=O)[O-]
labelClass: inactive
--
compound: O=C(O)CCl
labelClass: inactive
--
compound: O=[N+]([O-])O.O=[N+]([O-])O.[Cd]
labelClass: active
--
compound: CCOC(=O)N(C)N=O
labelClass: inactive
--
compound: Nc1ccc(-c2ccc(N)c(N)c2)cc1N
labelClass: inactive
--
compound: O=C(NC(=O)c1c(F)cccc1F)Nc1ccc(Oc2ccc(C(F)(F)F)cc2Cl)cc1F
labelClass: inactive
--
compound: O=C1C=CC(=O)C=C1
labelClass: inactive
--
compound: CCCCOC(=O)CCC(=O)OCCCC
labelClass: inactive
--
compound: CCc1cc(C)cc(CC)c1-c1c(OC(=O)C(C)(C)C)n2n(c1=O)CCOCC2
labelClass: inactive
--
compound: COc1ccc(CO)cc1
labelClass: inactive
--
compound: O=S(=O)(O)OOS(=O)(=O)O
labelClass: inactive
--
compound: CC1CCC(=O)O1 (configuration not stated)
labelClass: inactive
--
compound: O=[N+]([O-])c1ccc(Cl)cc1
labelClass: inactive
